B1: RHOBTB3 (parent)
chain: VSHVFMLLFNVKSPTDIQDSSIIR

- Variants of: B1
- test: protein stability index of a GFP-peptide fusion (GPS, HEK-293T) (PSI 1-6); higher = more stable;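 note: lentivirally expressed fusions sorted by FACS into six bins by GFP to DsRed ratio, PSI derived from sequencing read proportions per bin multiplied by bin number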
- condition-context: c terminus: a fixed tail appended
experimental-readout: protein stability index
Reply briefly: the number, and no unit.

For orientation, consider the following solved cases.
{"mutant-name": "P14K", "protein stability index": 2.58}
{"mutant-name": "D19R", "protein stability index": 3.06}
{"mutant-name": "T15N", "protein stability index": 3.26}
{"mutant-name": "V11W", "protein stability index": 2.83}
{"mutant-name": "P14E", "protein stability index": 2.14}

Could you please provide reported protein stability index for T15I ? Thanks!
2.23

Could you please provide reported protein stability index for D19K ? Thanks!
2.3

Could you please provide reported protein stability index for L7W ? Thanks!
2.9

Could you please provide reported protein stability index for T15Y ? Thanks!
2.63

Could you please provide reported protein stability index for S21W ? Thanks!
3.54

Could you please provide reported protein stability index for F9W ? Thanks!
3.94
